Reference source: ChEMBL document CHEMBL3507680

Listed here: items and their measured cytotoxicity at 70.5 h.
Assay: Human HepG2 cell viability assay in 384 well format
Format: toxicity, cell-based
Design: dose 125 nL, time 70.5 hour; concentration not given beside the values
Details: HepG2 cells, read-out: Inhibition
Give the quantity in %, number only.

Example entries and their recorded answers appear below.
* CC(NC(=O)NCCCc1n[nH]c(N)c1C#N)c1cccc(Cl)c1 (stereo unspecified) | -4.21
* COc1cccc(SCC(=O)N2CCCC(N3CCCC3=O)C2)c1 (stereo unspecified) | -1.58
* O=C(Cc1csc(-c2ccoc2)n1)NCCC(=O)N1CCCCC1 | -2.09
* CCN1CCN(C(=O)c2nc(C)n(-c3ccccc3Cl)n2)CC1 | 7.74
* O=C(CN1CCCC1c1nc(-c2ccccc2)no1)N1CCOCC1 (stereo unspecified) | -4.9

Fill blank: measured cytotoxicity at 70.5 h of the molecule CCC1(c2ccc(NS(=O)(=O)N(C)C)cc2)CCC(=O)NC1=O (stereo unspecified) is ____.
-2.76

Now the molecule `Cc1ccoc1C(=O)N1CC[C@H]2O[C@@H](C)C[C@H]2C1`
-10.2

Moving on to `NC(=O)c1cc(NC(=O)NCCc2cc(F)cc(F)c2)ccc1F`
10.2

// same read-out, input: Cc1cc(C(=O)NCc2ccc(N3CCCC(C(N)=O)C3)cc2)[nH]n1 (stereo unspecified)
-2.55

Also need COc1c(C2CCCN2c2ncnc3c2cnn3C)c(C)nn1C (stereo unspecified) , thanks.
-5.32

Consider next the molecule `CC(=O)N1CCCn2nc(CNS(=O)(=O)c3cc(C)cs3)cc2C1` in the same way.
-4.2

---

Consider the following compounds and their measured cytotoxicity at 70.5 h readings.
Experiment: Human HepG2 cell viability assay in 384 well format
Format: toxicity, cell-based
Design: dose 125 nL, time 70.5 hour; concentration not given beside the values
Details: HepG2 cells, read-out: Inhibition
Output spec: scalar in %, unitless text.

Consider the reported cytotoxicity at 70.5 h for these compounds:
* CCN(CC)[C@@H]1CN(C(=O)c2ccc(C#N)cc2)[C@@H]2CCCO[C@H]12 | -4.73
* CCCN1CCCn2c(nc(CNC(=O)c3cnoc3C)cc2=O)C1 | 16.5
* O=C(Cn1cnc2cc3c(cc21)OCCCO3)NC1CCCC1 | 25.4

Consider the compound O=C(Cc1cccnc1)NC1COc2ccccc2C1=O (centres undefined) and give its measured cytotoxicity at 70.5 h.
-14.7

Note, next up: `O=C1CN(C(=O)c2cc(Cl)ccc2F)c2ccccc2N1`
37.1

Now the compound `CCc1nccn1CCCNc1nccc(-c2c(C)nn(C)c2C)n1`
-16.7

// same read-out, input: CN1CCCC1CNC(=O)CCOc1ccc(Cl)cc1 (centres undefined)
-2.08

Queued: `CC(C)NS(=O)(=O)c1cc(C(=O)O)cc(-c2ccccc2F)c1`
-10.8

Please do the same for Cc1ccc(C(CNCc2cccc3c2OCO3)N2CCOCC2)o1 (centres undefined) as well.
-17

Also `COCCN(C)[C@@H]1c2ccccc2C2(CCNCC2)[C@H]1O` , if possible.
-4.67

Same question for `CSc1cc2c(cc1NC(=O)N(C)Cc1ccncc1)OCCO2` please.
-2.5

---

Test: Human HepG2 cell viability assay in 384 well format
Type: toxicity, cell-based
Set-up: dose 125 nL, time 70.5 hour; concentration not given beside the values
Conditions: HepG2 cells, read-out: Inhibition
Measure: cytotoxicity at 70.5 h (%)
Give the number; % is assumed, so skip it.

Guide cases for cytotoxicity at 70.5 h, answers given:
• Cn1ncc2c(N3CC[C@H](O)C3)nc(-c3ccncc3)nc21 = -15.7
• O=C(c1c2c(NCC3CC3)ncnc2n2ccccc12)N1CCOCC1 = -1.89
• COCC1CC2(CCN(Cc3ccc(C)o3)CC2)CN1C(C)C (stereo unspecified) = -3.1
• OC1CCN(c2ccccc2NCc2nc(-c3ccoc3)no2)CC1 = 36.2
• COc1cccc(CC(=O)N2CCCC(n3nc(C)cc3C)C2)c1 (stereo unspecified) = -14.1

Now look at this one.
GET /values?readout=cytotoxicity at 70.5 h&item= CN1CC(=O)N(c2ccsc2)CC12CCN(C(=O)CC1CCCC1)C2 (stereo unspecified)
-0.558
